- ASSAYED_SYSTEM: PTRGER4 (EP4) (Homo sapiens (Human))
- Sequence (P35408 whole entry, looked up): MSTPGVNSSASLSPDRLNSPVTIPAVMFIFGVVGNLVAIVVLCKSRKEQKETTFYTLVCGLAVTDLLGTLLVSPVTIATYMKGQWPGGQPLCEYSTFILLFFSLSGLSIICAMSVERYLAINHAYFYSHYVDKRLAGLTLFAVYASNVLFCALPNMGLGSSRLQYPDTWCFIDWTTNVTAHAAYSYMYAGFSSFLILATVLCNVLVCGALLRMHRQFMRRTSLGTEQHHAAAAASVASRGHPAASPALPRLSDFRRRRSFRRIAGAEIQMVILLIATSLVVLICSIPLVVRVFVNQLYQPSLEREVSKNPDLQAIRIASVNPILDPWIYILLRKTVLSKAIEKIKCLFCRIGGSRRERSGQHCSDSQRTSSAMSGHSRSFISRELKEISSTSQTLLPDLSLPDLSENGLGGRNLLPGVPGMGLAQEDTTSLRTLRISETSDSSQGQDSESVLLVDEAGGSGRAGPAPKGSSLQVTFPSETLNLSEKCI
- PROTOCOL_NOTES: hEP4 b-arrestin assay (PathHunter HEK 293 PTGER4 b-arrestin cells)
- Assay type: cell-based
- MEASUREMENT_SETUP: antagonistic activity on hEP4; mean where measured multiple times
OBSERVED_PROPERTY: IC50

# example entries with known answers
# SMILES_STRUCTURE, IC50
rows = [
    ("Cc1cc2c(Cl)ccc(F)c2n1CCNc1cc(-c2cc(Cl)c(C(=O)O)s2)ncn1", "82 nM"),
    ("CCc1cc(-c2cc(NCCn3c(C)cc4c(CC)cccc43)ncn2)ccc1C(=O)O", "933 nM"),
    ("Cc1ccc(F)c2c1cc(C)n2CCNc1cc(-c2ccc(C(=O)NCCO)cc2)ncn1", "995 nM"),
]

Please examine the following record next.
The recorded IC50 for entry Cc1nc2cc(-c3cc(NCCn4c(C)cc5c(C)ccc(F)c54)ncn3)ccc2[nH]1 equals 305 nM
